Target: Recombinant human his-tagged IGF 1R extracellular domain protein (human) (UniProt P08069)
Experiment: SPR, captured IgG, IGF-1R ECD-his analyte, dissociation pH 7.4
readout: log10(koff) (log10 of the value in s⁻¹)

>>> experimental_result("VRDN-02532 (antibody, V domains shown) VH: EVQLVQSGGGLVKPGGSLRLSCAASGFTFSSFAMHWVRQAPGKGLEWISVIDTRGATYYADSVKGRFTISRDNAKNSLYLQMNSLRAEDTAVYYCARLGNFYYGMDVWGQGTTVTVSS VL: EIVLTQSPGTLSVSPGERATLSCRASQHIGSSLHWYQQKPGQAPRLLIKYASQSLSGIPDRFSGSGSGTDFTLTISRLEPEDFAVYYCHQSSRLPHTFGQGTKVEIK")
-4.39
>>> experimental_result("VRDN-02512 (antibody, V domains shown) VH: EVQLVQSGGGLVKPGGSLRLSCAASGFTFSSFAMHWVRQAPGKGLEWISVIDTHGATYYADSVKGRFTISRDNAKNSLYLQMNSLRAEDTAVYYCARLGNFYYGMDVWGQGTTVTVSS VL: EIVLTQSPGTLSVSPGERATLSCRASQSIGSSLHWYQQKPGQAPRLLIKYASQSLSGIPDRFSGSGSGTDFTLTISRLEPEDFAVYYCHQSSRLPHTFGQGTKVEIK")
-3.57
>>> experimental_result("VRDN-02537 (antibody, V domains shown) VH: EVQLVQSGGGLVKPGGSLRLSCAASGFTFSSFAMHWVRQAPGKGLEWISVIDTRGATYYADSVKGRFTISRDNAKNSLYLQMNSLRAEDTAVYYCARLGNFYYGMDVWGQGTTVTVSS VL: EIVLTQSPGTLSVSPGERATLSCRASQSIGSSHHWYQQKPGQAPRLLIKYASQSLSGIPDRFSGSGSGTDFTLTISRLEPEDFAVYYCHQSSRLPHTFGQGTKVEIK")
-4.15
>>> experimental_result("VRDN-02549 (antibody, V domains shown) VH: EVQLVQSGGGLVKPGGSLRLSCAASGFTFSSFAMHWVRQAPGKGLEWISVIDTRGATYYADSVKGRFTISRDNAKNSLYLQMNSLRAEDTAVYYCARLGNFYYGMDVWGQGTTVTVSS VL: EIVLTQSPGTLSVSPGERATLSCRASQSIGSSLHWYQQKPGQAPRLLIKYASQSLSGIPDRFSGSGSGTDFTLTISRLEPEDFAVYYCHQSSHLPHTFGQGTKVEIK")
-4.41
>>> experimental_result("VRDN-02552 (antibody, V domains shown) VH: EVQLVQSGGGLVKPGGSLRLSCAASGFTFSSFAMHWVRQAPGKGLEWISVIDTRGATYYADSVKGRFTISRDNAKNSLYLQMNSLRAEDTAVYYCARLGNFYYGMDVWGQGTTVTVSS VL: EIVLTQSPGTLSVSPGERATLSCRASQSIGSSLHWYQQKPGQAPRLLIKYASQSLSGIPDRFSGSGSGTDFTLTISRLEPEDFAVYYCHQSSRLPHHFGQGTKVEIK")
-6.00

FYI, the data here is from patent US20240343814A1.
